src = ChEMBL document CHEMBL1955797

System Under Test: Transient receptor potential M8 protein (Canis lupus familiaris, UniProt Q1A7N1)
Sequence (Q1A7N1 whole entry): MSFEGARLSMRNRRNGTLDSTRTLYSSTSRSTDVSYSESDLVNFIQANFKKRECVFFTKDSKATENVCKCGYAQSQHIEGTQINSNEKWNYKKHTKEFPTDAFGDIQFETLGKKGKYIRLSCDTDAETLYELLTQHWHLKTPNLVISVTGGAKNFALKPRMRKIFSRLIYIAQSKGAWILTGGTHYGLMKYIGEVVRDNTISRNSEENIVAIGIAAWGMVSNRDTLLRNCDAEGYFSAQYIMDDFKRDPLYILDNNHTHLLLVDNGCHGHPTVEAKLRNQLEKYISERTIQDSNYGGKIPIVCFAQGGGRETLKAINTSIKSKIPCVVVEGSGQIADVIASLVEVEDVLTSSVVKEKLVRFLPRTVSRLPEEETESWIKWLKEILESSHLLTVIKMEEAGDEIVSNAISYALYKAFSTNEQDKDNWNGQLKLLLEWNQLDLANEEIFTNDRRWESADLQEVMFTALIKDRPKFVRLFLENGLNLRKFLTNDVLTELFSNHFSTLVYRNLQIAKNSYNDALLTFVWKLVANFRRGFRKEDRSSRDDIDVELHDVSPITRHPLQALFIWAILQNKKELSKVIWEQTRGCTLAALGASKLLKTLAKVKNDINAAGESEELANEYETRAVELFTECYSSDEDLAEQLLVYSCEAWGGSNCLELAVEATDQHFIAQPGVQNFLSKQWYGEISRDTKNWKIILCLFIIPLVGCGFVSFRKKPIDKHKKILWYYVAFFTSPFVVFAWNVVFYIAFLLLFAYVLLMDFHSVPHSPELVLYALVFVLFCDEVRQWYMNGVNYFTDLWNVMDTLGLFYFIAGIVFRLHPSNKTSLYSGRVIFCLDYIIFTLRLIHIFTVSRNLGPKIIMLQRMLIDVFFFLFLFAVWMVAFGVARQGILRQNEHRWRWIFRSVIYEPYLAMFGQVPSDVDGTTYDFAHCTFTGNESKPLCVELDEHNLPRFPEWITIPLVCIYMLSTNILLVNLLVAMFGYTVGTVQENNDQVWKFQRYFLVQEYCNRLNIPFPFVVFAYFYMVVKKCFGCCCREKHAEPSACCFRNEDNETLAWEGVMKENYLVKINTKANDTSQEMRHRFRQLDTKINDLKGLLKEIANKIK
Assay Summary: Antagonist activity at dog TRPM8 expressed in HEK293 cells assessed as inhibition of icilin-induced calcium flux by FLIPR assay
Measurement Kind: IC50

The reported IC50 of the compound Fc1ccccc1-c1ccc2[nH]c(/C=C/C3CCCCC3)nc2c1 was 21 nM

Form: compound = C(=C\C1CCCCC1)/c1nc2cc(-c3ccccc3)ccc2[nH]1 ; IC50 = 110 nM

IC50 recorded for this compound, FC(F)(F)c1cccc(C(F)(F)F)c1-c1ccc2[nH]c(/C=C/C3CCCCC3)nc2c1 , is 12.3 nM

Sample CC1(/C=C/c2nc3cc(-c4ccccc4C(F)(F)F)ccc3[nH]2)CCOCC1 ; IC50 observed: 8.9 nM

Entry Clc1ccccc1-c1ccc2[nH]c(/C=C/C3CCCCC3)nc2c1 ; IC50 = 8.9 nM

Briefly, IC50 measured for FC(F)(F)c1cccnc1-c1ccc2[nH]c(/C=C/C3CCCCC3)nc2c1 : 38 nM

// COc1ccccc1-c1ccc2[nH]c(/C=C/C3CCCCC3)nc2c1 : IC50 value = 8.9 nM

Please fill in: IC50 reported for FC(F)(F)c1ccccc1-c1ccc2[nH]c(/C=C/C3CCOCC3)nc2c1 = 7.1 nM

The compound identified as Cc1ccccc1-c1ccc2[nH]c(/C=C/C3CCCCC3)nc2c1 registered its IC50 at 7.1 nM

Notebook: FC(F)(F)Oc1ccccc1-c1ccc2[nH]c(/C=C/C3CCCC3)nc2c1 , IC50 read as 110 nM
